# experiment-description: photoluminescence quantum yield (fraction); solvent given as SMILES
# experimental-parameters: in CC(C)=O
# reported photoluminescence quantum yield; entries follow
Note: the reply should be a number with no unit written.

Some solved cases for reference:
1. CC(=O)Nc1ccc(/C=C2\OC(=O)c3cc(N)ccc32)cc1
0.02
2. CC1(C)c2ccccc2N(c2ccc(S(=O)(=O)c3ccc(N4c5ccccc5C(C)(C)c5ccccc54)cc3)cc2)c2ccccc21
0.59
3. COc1nc(Cl)nc(Nc2ccc3c4c(cccc24)C(=O)c2ccccc2-3)n1
0.54
4. CSC1=C2C=C(c3cc4n(c3)[B-](F)(F)[N+]3=CC=CC3=C4c3c(C)cc(C)cc3C)C(C)=[N+]2[B-](F)(F)n2c(C)ccc21
0.01
5. CCn1c2ccccc2c2cc(/C=C/c3cc(/C=C/c4ccc5c(c4)c4ccccc4n5CC)[n+](CCCS(=O)(=O)[O-])c(/C=C/c4ccc5c(c4)c4ccccc4n5CC)c3)ccc21
0.05
6. CCn1c2ccccc2c2cc(/C=C3\C(=O)c4ccccc4S3(=O)=O)ccc21
0.042
7. CCCCN1c2ccccc2Sc2cc(/C=C/c3nc4nc5ccccc5nc4s3)ccc21
0.001
8. C#CCNC1=C2C=CC=[N+]2[B-](F)(F)n2cccc21
0.86

Continue with the compound presented below.
Input `COc1ccc(/C=C2\OC(=O)c3ccccc32)cc1` . Output photoluminescence quantum yield: 0.01

Data provenance is the Deep4Chem optical property database.
